SYSTEM_UNDER_TEST: KRAS G13C (Homo sapiens, UniProt P01116+P62937, G13C)
Sequence (P01116 1-169 isoform P01116-2 G13C, one chain of several): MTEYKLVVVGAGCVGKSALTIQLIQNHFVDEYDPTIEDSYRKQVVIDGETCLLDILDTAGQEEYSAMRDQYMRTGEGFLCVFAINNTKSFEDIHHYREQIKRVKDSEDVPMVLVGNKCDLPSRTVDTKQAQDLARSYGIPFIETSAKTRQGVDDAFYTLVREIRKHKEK
ASSAY_COMMENT: Disruption of BRAF RBD interaction with Ras (FRET / MOA assay, with Cyclophilin A)
Assay type: biochemical
PROTOCOL_CONDITIONS: KRAS G13C FRET data, IC50
pIC50: −log10 of the molar value.
METRIC: pIC50

Inquiry: May I ask what pIC50 has been recorded for CCn1c(-c2cccnc2[C@H](C)OC)c2c3cc(ccc31)-c1csc(n1)C[C@H](NC(=O)[C@H](C(C)C)N(C)C(=O)N1CCC(N(C)C)CC1)C(=O)N1CCC[C@H](N1)C(=O)OCC(C)(C)C2 (atropisomer, axis not shown) ?
Reply text: 6.00 to 7.00

Inquiry: Given CCn1c(-c2cccnc2[C@H](C)OC)c2c3cc(ccc31)-c1cc(O)cc(c1)C[C@H](NC(=O)[C@H](C(C)C)N(C)C(=O)[C@H]1C[C@@H](O)C1)C(=O)N1CCC[C@H](N1)C(=O)OCC(C)(C)C2 (atropisomer, axis not shown) , state its recorded pIC50.
Reply text: 7.00 to 8.00

Inquiry: Item CCn1c(-c2cnccc2COC)c2c3cc(ccc31)-c1cc(O)cc(c1)C[C@H](NC(=O)[C@H](C(C)C)N(C)C(=O)[C@H]1CCN(CCO)C1)C(=O)N1CCC[C@H](N1)C(=O)OCC(C)(C)C2 has what recorded pIC50?
Reply text: 7.00 to 8.00

###

SYSTEM_UNDER_TEST: KRAS G12V (Homo sapiens, UniProt P01116+P62937, G12V)
Sequence (P01116 1-169 isoform P01116-2 G12V limits assumed): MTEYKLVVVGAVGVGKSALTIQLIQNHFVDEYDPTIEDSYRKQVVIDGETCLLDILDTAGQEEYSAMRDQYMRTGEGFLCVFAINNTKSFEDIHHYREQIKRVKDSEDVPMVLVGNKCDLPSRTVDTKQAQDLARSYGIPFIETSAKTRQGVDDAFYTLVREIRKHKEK
Sequence (P62937 whole entry): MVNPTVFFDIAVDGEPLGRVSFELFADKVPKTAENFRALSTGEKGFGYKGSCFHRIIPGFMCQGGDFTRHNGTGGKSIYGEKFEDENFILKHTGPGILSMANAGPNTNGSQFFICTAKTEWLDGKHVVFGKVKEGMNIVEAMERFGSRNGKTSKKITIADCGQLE
ASSAY_COMMENT: Disruption of BRAF RBD interaction with Ras (FRET / MOA assay, with Cyclophilin A)
Type: biochemical
PROTOCOL_CONDITIONS: KRAS G12V; read-out: KRAS G12V FRET data IC50
METRIC: IC50

Solved cases below.
* CCn1c(-c2cccnc2[C@H](C)OC)c2c3cc(ccc31)-c1csc(n1)C[C@H](NC(=O)[C@H](C(C)C)N(C)C(=O)[C@H]1[C@@H]3CNC[C@@H]31)C(=O)N1CCC[C@H](N1)C(=O)OCC(C)(C)C2 (atropisomer, axis not shown) [Example A448] | > 10 µM
* CCn1c(-c2cccnc2[C@H](C)OC)c2c3cc(ccc31)-c1csc(n1)C[C@H](NC(=O)[C@H](C(C)C)N(C)C(=O)N1CC(OC)C1)C(=O)N1CC[C@H](C)[C@H](N1)C(=O)OCC(C)(C)C2 [Example A579] | 0.1 to 1 µM
* CCn1c(-c2cccnc2[C@H](C)OC)c2c3cc(ccc31)-c1cc(O)cc(c1)C[C@H](NC(=O)[C@H](C(C)C)N(C)C(=O)C1CCc3ccccc3N1)C(=O)N1CCC[C@H](N1)C(=O)OCC(C)(C)C2 (some centres unmarked) [Example A226] | 0.1 to 1 µM
* CCn1c(-c2cccnc2[C@H](C)OC)c2c3cc(ccc31)-c1cc(O)cc(c1)C[C@H](NC(=O)[C@H](C(C)C)N(C)C(=O)[C@@H]1OC[C@@H]3CCC[C@@H]31)C(=O)N1CCC[C@H](N1)C(=O)OCC(C)(C)C2 [Example A407] | 0.01 to 0.1 µM
* CCn1c(-c2cccnc2COC)c2c3cc(ccc31)-c1cc(O)cc(c1)C[C@H](NC(=O)[C@@H](C(C)C)N(C)C(=O)[C@H]1CCN(C(=O)C#CCN(C)C)C1)C(=O)N1CCC[C@H](N1)C(=O)OCC(C)(C)C2 [Example A156] | > 10 µM

Inquiry: Value wanted: IC50 (KRAS G12V (Homo sapiens, UniProt P01116+P62937, G12V)) of entry CCn1c(-c2cccnc2[C@H](C)OC)c2c3cc(ccc31)-c1csc(n1)C[C@H](NC(=O)[C@H](C(C)C)N(C)C(=O)N1CCCOCC1)C(=O)N1CCC[C@H](N1)C(=O)OCC(C)(C)C2 (atropisomer, axis not shown) [Example A335]
Reply text: 0.1 to 1 µM

Inquiry: Tell me reported IC50 for CCn1c(-c2cccnc2[C@H](C)OC)c2c3cc(ccc31)-c1cccc(c1)C[C@H](NC(=O)[C@H](C(C)C)N(C)C(=O)[C@@H]1CCN(C(=O)C#CC(C)(C)N3CCC3)C1)C(=O)N1CCC[C@H](N1)C(=O)OCC(C)(C)C2 [Example A476] , tested with KRAS G12V (Homo sapiens, UniProt P01116+P62937, G12V).
Reply text: 1 to 10 µM

Inquiry: Kindly state the measured IC50 obtained for CCn1c(-c2cccnc2[C@H](C)OC)c2c3cc(ccc31)-c1csc(n1)C[C@H](NC(=O)[C@H](C(C)C)N(C)C(=O)N(C)C1CC1)C(=O)N1CCC[C@H](N1)C(=O)OCC(C)(C)C2 [Example A353] with KRAS G12V (Homo sapiens, UniProt P01116+P62937, G12V).
Reply text: 0.1 to 1 µM

###

SYSTEM_UNDER_TEST: KRAS G12V (Homo sapiens, UniProt P01116+P62937, G12V)
ASSAY_COMMENT: Disruption of BRAF RBD interaction with Ras (FRET / MOA assay, with Cyclophilin A)
Format: biochemical
PROTOCOL_CONDITIONS: KRAS G12V; read-out: KRAS G12V FRET data IC50
pIC50: −log10 of the molar value.
METRIC: pIC50

Recorded pIC50, per entry:
• C=CC(=O)N1C[C@H](C)[C@H](C(=O)N(C)[C@H](C(=O)N[C@H]2Cc3cc(O)cc(c3)-c3ccc4c(c3)c(c(-c3ccccc3CCOC)n4CC)CC(C)(C)COC(=O)[C@@H]3CCCN(N3)C2=O)C(C)C)C1 = 6.00 to 7.00
• CCn1c(-c2cccnc2[C@H](C)OC)c2c3cc(ccc31)-c1csc(n1)C[C@H](NC(=O)[C@H](C(C)C)N(C)C(=O)N1CCC3(CCN(C)CC3)C1)C(=O)N1CCC[C@H](N1)C(=O)OCC(C)(C)C2 (atropisomer, axis not shown) = 6.00 to 7.00
• C=CC(=O)N1CCO[C@H]2CN(C(=O)N(C)[C@H](C(=O)N[C@H]3Cc4cccc(c4)-c4ccc5c(c4)c(c(-c4cccnc4[C@H](C)OC)n5CC)CC(C)(C)COC(=O)C4CCCN(N4)C3=O)C(C)C)C[C@H]21 (stereo partly drawn) = 5.00 to 6.00
• CCn1c(-c2cccnc2[C@H](C)OC)c2c3cc(ccc31)-c1cc(O)cc(c1)C[C@H](NC(=O)[C@H](C(C)C)N(C)C(=O)[C@@H]1CC1(C)C)C(=O)N1CCC[C@H](N1)C(=O)OCC(C)(C)C2 = 6.00 to 7.00
• C=CC(=O)N1CC[C@H](C(=O)N(C)[C@H](C(=O)N[C@H]2Cc3cc(O)cc(c3)-c3ccc4c(c3)c(c(C3=C(COC)CCCC3)n4CC)CC(C)(C)COC(=O)[C@@H]3CCCN(N3)C2=O)C(C)C)C1 = 5.00 to 6.00
• CCn1c(-c2cccnc2[C@H](C)OC)c2c3cc(ccc31)-c1csc(n1)[C@@H](O)[C@H](NC(=O)[C@H](C(C)C)N(C)C(=O)N1CC(N(C)C)C1)C(=O)N1CCC[C@H](N1)C(=O)OCC(C)(C)C2 (atropisomer, axis not shown) = 6.00 to 7.00

Inquiry: I have this molecule here, C=CS(=O)(=O)N1CC[C@H](C(=O)N(C)[C@H](C(=O)N[C@H]2Cc3cc(O)cc(c3)-c3ccc4c(c3)c(c(-c3cccnc3COC)n4CC)CC(C)(C)COC(=O)[C@@H]3CCCN(N3)C2=O)C(C)C)C1 , and I need its recorded pIC50.
Reply text: 6.00 to 7.00

Inquiry: Entry CCn1c(-c2cccnc2[C@H](C)OC)c2c3cc(ccc31)-c1cc(O)cc(c1)C[C@H](NC(=O)[C@H](C(C)C)N(C)C(=O)C13CNCC1C3)C(=O)N1CCC[C@H](N1)C(=O)OCC(C)(C)C2 (stereo partly drawn) has what pIC50?
Reply text: 6.00 to 7.00

Inquiry: Find the recorded pIC50 belonging to C=CC(=O)N1CC[C@H](C(=O)N(C)[C@H](C(=O)N[C@H]2Cc3cc(O)cc(c3)-c3ccc4c(c3)c(c(-c3cccnc3COCC)n4CC)CC(C)(C)COC(=O)[C@@H]3CCCN(N3)C2=O)C(C)C)C1 and report it.
Reply text: 6.00 to 7.00

###

// values below are reported IC50
SYSTEM_UNDER_TEST: KRAS G12D (Homo sapiens, UniProt P01116+P62937, G12D)
Sequence (P01116 1-169 isoform P01116-2 G12D limits assumed, one chain of several): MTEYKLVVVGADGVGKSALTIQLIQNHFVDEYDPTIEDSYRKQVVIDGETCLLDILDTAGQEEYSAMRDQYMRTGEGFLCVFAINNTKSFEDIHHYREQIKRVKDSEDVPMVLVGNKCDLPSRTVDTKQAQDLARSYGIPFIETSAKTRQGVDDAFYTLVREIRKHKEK
ASSAY_COMMENT: Disruption of BRAF RBD interaction with Ras (FRET / MOA assay, with Cyclophilin A)
Assay type: biochemical
PROTOCOL_CONDITIONS: read-out: KRAS G12D FRET data, IC50

* CCn1c(-c2cccnc2[C@H](C)OC)c2c3cc(ccc31)-c1csc(n1)C[C@H](NC(=O)[C@H](C(C)C)N(C)C(=O)N1CC3CCN(C)CC31)C(=O)N1CCC[C@H](N1)C(=O)OCC(C)(C)C2 (stereo partly shown) | 1000 to 10000 nM
* CCn1c(-c2cccnc2[C@H](C)OC)c2c3cc(ccc31)-c1csc(n1)C[C@H](NC(=O)[C@H](C(C)C)N(C)C(=O)N1CC3(CC(O)C3)C1)C(=O)N1CCC[C@H](N1)C(=O)OCC(C)(C)C2 (atropisomer, axis not shown) | 1000 to 10000 nM
* C=CC(=O)N1CC[C@H](C(=O)Nc2ccccc2C(=O)N[C@H]2Cc3cc(O)cc(c3)-c3ccc4c(c3)c(c(-c3cnccc3COC)n4CC)CC(C)(C)COC(=O)[C@@H]3CCCN(N3)C2=O)C1 | 100 to 1000 nM

Let's switch to this molecule now.
Inquiry: For the molecule shown here, CCn1c(-c2cccnc2[C@H](C)OC)c2c3cc(ccc31)-c1csc(n1)C[C@H](NC(=O)[C@H](C(C)C)N(C)C(=O)N1CC([C@@H](C)CO)C1)C(=O)N1CCC[C@H](N1)C(=O)OCC(C)(C)C2 (single isomer, unassigned) , give the reported IC50.
Reply text: 100 to 1000 nM
